Measured LC retention time, listed per entry for reference.
assay: Waters XBridge BEH C18, 150 × 1 mm, 1.7 µm, 30 °C, 0.04 mL/min, estimated dead time 1.9 min; A: 79.7% water + 20% methanol + 0.3% acetic acid; B: 99.7% methanol + 0.3% acetic acid; gradient (min/%B) 0/0 17/58.7 17.2/100 20.2/100; details: stereoisomer not certain
// units = min; emit number, no label

[in] Find the recorded LC retention time belonging to CC(=O)Oc1ccc2c3c1OC1C(OC(C)=O)C=CC4C(C2)N(C)CCC341 (stereo unspecified) and report it.
[out] 11.4

[in] So what's the measured LC retention time for this one? CN1C2CC=C(C(=O)O)C1CC2 (stereo unspecified)
[out] 3

[in] Need LC retention time of CC(N)Cc1ccc2c(c1)OCO2 (stereo unspecified) , thanks.
[out] 8.1

[in] Please give the measured LC retention time for this compound: `Cn1c(=O)[nH]c2ncn(C)c2c1=O`
[out] 6.1

[in] Entry under review: `c1ccc(C2(N3CCCCC3)CCCCC2)cc1` . Reported LC retention time?
[out] 14.7

---
[in] Name the reported LC retention time value associated with the compound CCN(CC)C(=O)C1C=C2c3cccc4[nH]cc(c34)CC2N(C)C1 (stereo unspecified)
[out] 13.8
